- Measurement Protocol: The amount of unchanged compound in urine collected at 0-54 hr after treatment
- Assay Context: rat
Note to self: class labels come from recorded dose excreted, ranges listed here: lower band = under 20%, central band = from 20% up to 40%, upper band = 40% and over

CCN(CC)CCOCCn1c([N+](=O)[O-])cnc1C    central band
Cn1c([N+](=O)[O-])cnc1/C=C/c1ccnc(N)n1    lower band
CCC(CC)C(O)Cn1c([N+](=O)[O-])cnc1C (stereo not drawn)    upper band
Cc1ncc([N+](=O)[O-])n1CCS(C)(=O)=O    central band
Cn1c([N+](=O)[O-])cnc1CO    upper band

Could you tell me which band Nc1ncc(S(=O)(=O)c2ccc([N+](=O)[O-])cc2)s1 belongs to?
upper band

Tag the class for Cn1c([N+](=O)[O-])cnc1C=O
central band

Lab note: which band did Cc1ncc([N+](=O)[O-])n1CCO land in?
upper band

# bin lookup: classify O=C1NCCN1c1ncc([N+](=O)[O-])s1 by its dose excreted
lower band

Just checking, what class would you give Cc1ncc([N+](=O)[O-])n1CC(O)Cn1c([N+](=O)[O-])cnc1C here?
central band

Into which category would you place Cn1c([N+](=O)[O-])cnc1/C=C(\Oc1ccccc1)C(=O)O ?
central band

Categorize the following entry: Cc1ncc([N+](=O)[O-])n1CC(=O)Nc1ncccn1
upper band

// return the class label for Cc1ncc([N+](=O)[O-])n1CC(=O)N1CCN(C(=O)Cn2c([N+](=O)[O-])cnc2C)CC1
lower band

Where do the numbers come from? From ChEMBL document CHEMBL1123508.
